Test system: Enterobacter aerogenes
Assay comment: minimum inhibitory concentration (MIC), agar dilution
Format: cell-based
Condition info: Klebsiella aerogenes; neutral growth medium (pH = 6.8); read-out: MIC (NEA)
Procedure: The minimum inhibitory concentration (MIC) for the compound of Example 19, i.e., (2-nitrophenyl)-iodonium 2,2-dimethyl-4,6-dioxo-1,3-dioxan-5-ylide was determined for 9 bacteria (using nutrient agar) and 5 yeast and fungi (using malt yeast agar). […] The petri plates were incubated at 30° C. for 48 hr and then read to determine if the test compound (i.e., the compound of Example 19) which was incorporated into the agar prevented growth of the respective bacteria. […]
Quantity measured: MIC (µg/mL)
Dear colleague, please return just the value in µg/mL, with no unit written.

// MIC lookup, compound = `Cc1cc(=O)[c-]([I+]c2ccccc2[N+](=O)[O-])c(=O)o1` , result: 100

// MIC lookup, compound = `O=c1[nH]c(=O)[c-]([I+]c2ccccc2[N+](=O)[O-])c(=O)[nH]1` , result: 100

// MIC lookup, compound = `CCn1c(=O)[c-]([I+]c2ccccc2[N+](=O)[O-])c(=O)n(CC)c1=S` , result: 500

###

Tested on: Enterobacter aerogenes
Assay comment: minimum inhibitory concentration (MIC), agar dilution
Type: cell-based
Condition info: Klebsiella aerogenes; neutral growth medium (pH = 6.8); read-out: MIC (NEA)
For each of the compounds below, state its MIC.
Dear colleague, please return just the value in µg/mL, with no unit written.

// MIC lookup, compound = Cc1cccc2c(=O)[c-]([I+]c3ccccc3[N+](=O)[O-])c(=O)oc12 [Example 34] , result: 500

// MIC lookup, compound = Cc1cc(=O)[c-]([I+]c2ccccc2S(C)(=O)=O)c(=O)o1 [Example 46] , result: 100

// MIC lookup, compound = O=C(O)c1ccc2oc(=O)[c-]([I+]c3ccccc3[N+](=O)[O-])c(=O)c2c1 [Example 26] , result: 250

// MIC lookup, compound = CC1(C)CC(=O)[C-]([I+]c2ccccc2[N+](=O)[O-])C(=O)C1 [Example 14] , result: 2.5

// MIC lookup, compound = O=c1cc[nH]c(=O)[c-]1[I+]c1ccccc1[N+](=O)[O-] [Example 43] , result: 500

// MIC lookup, compound = Cc1ccc([I+][C-]2C(=O)OC(C)(C)OC2=O)c([N+](=O)[O-])c1 [Example 16] , result: 2.5

// MIC lookup, compound = CS(=O)(=O)c1ccccc1[I+][c-]1c(=O)cc[nH]c1=O [Example 42] , result: 500

// MIC lookup, compound = O=C1c2ccccc2C(=O)[C-]1[I+]c1ccccc1[N+](=O)[O-] [Example 48] , result: 50

// MIC lookup, compound = CC1(C)OC(=O)[C-]([I+]c2ccc(Cl)cc2[N+](=O)[O-])C(=O)O1 [Example 18] , result: 100

###

For each of the molecules below, state its MIC.
System: Enterobacter aerogenes
Assay comment: minimum inhibitory concentration (MIC), agar dilution
Type: cell-based
Condition info: Klebsiella aerogenes; neutral growth medium (pH = 6.8); read-out: MIC (NEA)

// MIC lookup, molecule = CS(=O)(=O)c1ccccc1[I+][c-]1c(=O)oc2ccc(Cl)cc2c1=O [Example 27] , result: > 500 µg/mL

// MIC lookup, molecule = COc1ccc2oc(=O)[c-]([I+]c3ccccc3S(C)(=O)=O)c(=O)c2c1 [Example 28] , result: > 500 µg/mL

// MIC lookup, molecule = O=c1[nH]c2ccccc2c(=O)[c-]1[I+]c1ccccc1[N+](=O)[O-] [Example 41] , result: ≤ 10 µg/mL

// MIC lookup, molecule = O=c1oc2ccc(Br)cc2c(=O)[c-]1[I+]c1ccccc1[N+](=O)[O-] [Example 23] , result: > 500 µg/mL

// MIC lookup, molecule = CC1CC(=O)[C-]([I+]c2ccccc2[N+](=O)[O-])C(=O)C1 [Example 15] , result: ≤ 10 µg/mL

// MIC lookup, molecule = O=C1CCC(=O)[C-]1[I+]c1ccccc1[N+](=O)[O-] [Example 10] , result: ≤ 10 µg/mL

// MIC lookup, molecule = O=c1oc2ccc(F)cc2c(=O)[c-]1[I+]c1ccccc1[N+](=O)[O-] [Example 22] , result: ≤ 10 µg/mL

// MIC lookup, molecule = O=c1oc2ccccc2c(=O)[c-]1[I+]c1ccccc1[N+](=O)[O-] [Example 32] , result: ≤ 10 µg/mL

// MIC lookup, molecule = COc1ccc2oc(=O)[c-]([I+]c3ccccc3[N+](=O)[O-])c(=O)c2c1 [Example 33] , result: > 500 µg/mL

// MIC lookup, molecule = CC1(C)CC(=O)[C-]([I+]c2ccccc2S(C)(=O)=O)C(=O)C1 [Example 12] , result: > 500 µg/mL

// MIC lookup, molecule = CS(=O)(=O)c1ccccc1[I+][c-]1c(=O)oc2ccc(C(=O)O)cc2c1=O [Example 29] , result: > 500 µg/mL

// MIC lookup, molecule = COc1ccc([I+][C-]2C(=O)OC(C)(C)OC2=O)c([N+](=O)[O-])c1 [Example 20] , result: ≤ 10 µg/mL
